The following compounds are listed with their measured IC50 values.
biological target: recombinant rabbit GSK-3β protein (Oryctolagus cuniculus, UniProt G1T8E2); construct: purchased New England Biolabs; assay: Glycogen Synthase Kinase-3 Assay; assay type: biochemical; settings: PPI-2 substrate, 33P-ATP, 90 minutes at 30° C.
Sequence (G1T8E2 1-432): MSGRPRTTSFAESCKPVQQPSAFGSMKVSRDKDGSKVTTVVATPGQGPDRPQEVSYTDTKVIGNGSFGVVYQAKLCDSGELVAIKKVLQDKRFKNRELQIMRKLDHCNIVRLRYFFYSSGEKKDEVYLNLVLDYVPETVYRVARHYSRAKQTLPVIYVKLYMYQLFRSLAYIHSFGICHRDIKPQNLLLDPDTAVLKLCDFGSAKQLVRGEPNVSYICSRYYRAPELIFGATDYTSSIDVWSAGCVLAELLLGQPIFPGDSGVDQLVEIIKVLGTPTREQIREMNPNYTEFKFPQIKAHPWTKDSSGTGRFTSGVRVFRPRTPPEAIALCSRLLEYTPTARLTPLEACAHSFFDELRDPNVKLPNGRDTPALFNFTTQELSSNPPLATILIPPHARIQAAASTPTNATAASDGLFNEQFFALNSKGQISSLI

// below: answered compounds
{"smiles.record": "CN(CCO)CCCn1nc(C2=C(c3cn(-c4cccnc4)c4ccccc34)C(=O)NC2=O)c2ccccc21", "tested.system": "recombinant rabbit GSK-3β protein (Oryctolagus cuniculus, UniProt G1T8E2)", "IC50": "0.155 µM"}
{"smiles.record": "CN1CCN(CCCn2nc(C3=C(c4cn(C)c5ccc(Cl)cc45)C(=O)NC3=O)c3ccccc32)CC1", "tested.system": "recombinant rabbit GSK-3β protein (Oryctolagus cuniculus, UniProt G1T8E2)", "IC50": "0.043 µM"}

Measured IC50 of Cn1cc(C2=C(c3nn(CCCN4CCOCC4)c4ccccc34)C(=O)NC2=O)c2cc(Cl)ccc21 : 0.041 µM

====

molecular target: PKC γ (Homo sapiens); assay: Protein Kinase C Histone-Based Assay, γ isoform; assay type: biochemical; conditions: histone III substrate, 30 μM ATP, 10 min at 30° C.; read-out: PKC Activity (IC50 μM, Histone Based Assay) Gamma
Labelling field: enter 1 if recorded IC50 is less than 0.2 µM. Enter -1 if it equals or exceeds that cut-off.

Solved cases (6 shown):
{"compound": "O=C1NC(=O)C(c2nn(CCCO)c3ccccc23)=C1c1cn(-c2cccnc2)c2ccccc12 [Compound 94]", "group": -1}
{"compound": "O=CCCn1nc(C2=C(c3cn(-c4cnc5ccccc5c4)c4ccccc34)C(=O)NC2=O)c2ccccc21 [Compound 23]", "group": 1}
{"compound": "CN(CCO)CCCn1nc(C2=C(c3cn(-c4ccc5ccccc5c4)c4ccccc34)C(=O)NC2=O)c2ccccc21 [Compound 88]", "group": -1}
{"compound": "CN(C)CCCn1nc(C2=C(c3cn(-c4cccnc4)c4ccc(Cl)cc34)C(=O)NC2=O)c2ccccc21 [Compound 13]", "group": 1}
{"compound": "CN(C)CCCn1nc(C2=C(c3cn(-c4cnc5ccccc5c4)c4ccccc34)C(=O)NC2=O)c2ccccc21 [Compound 19]", "group": 1}
{"compound": "CN1CCN(CCCn2nc(C3=C(c4cn(C)c5ccc(Cl)cc45)C(=O)NC3=O)c3ccccc32)CC1 [Compound 77]", "group": -1}

Now for another entry.
query: Confirm or reject: IC50 of CN(CCO)CCCn1nc(C2=C(c3cn(C)c4ccc(Cl)cc34)C(=O)NC2=O)c2ccccc21 [Compound 79] lies strictly below 0.2 µM
result: 1

====

molecular target: PKC γ (Homo sapiens, UniProt P05129); assay: Protein Kinase C Histone-Based Assay, γ isoform; format: biochemical; details: histone III substrate, 30 μM ATP, 10 min at 30° C.; read-out: PKC Activity (IC50 μM, Histone Based Assay) Gamma
The following compounds are listed with their measured IC50 values.

// below: answered compounds
{"smiles.record": "O=C1NC(=O)C(c2nn(CCC3OCCO3)c3ccccc23)=C1c1cn(-c2cnc3ccccc3c2)c2ccccc12", "measured.quantity": "IC50", "observed.value": "1.29 µM"}
{"smiles.record": "O=C1NC(=O)C(c2nn(CCCN3CCOCC3)c3ccccc23)=C1c1cn(-c2cccnc2)c2ccccc12", "measured.quantity": "IC50", "observed.value": "0.426 µM"}
{"smiles.record": "NCCCn1nc(C2=C(c3cn(-c4cccnc4)c4ccccc34)C(=O)NC2=O)c2ccccc21", "measured.quantity": "IC50", "observed.value": "0.231 µM"}
{"smiles.record": "CN(C)CCCn1nc(C2=C(c3cn(Cc4ccc5ccccc5n4)c4ccccc34)C(=O)NC2=O)c2ccccc21", "measured.quantity": "IC50", "observed.value": "0.65 µM"}
{"smiles.record": "O=C1NC(=O)C(c2nn(CCCO)c3ccccc23)=C1c1cn(-c2cnc3ccccc3c2)c2ccccc12", "measured.quantity": "IC50", "observed.value": "0.018 µM"}

Measured IC50 of Cn1cc(C2=C(c3nn(CCCN4CCOCC4)c4ccccc34)C(=O)NC2=O)c2cc(Cl)ccc21 : 0.53 µM

Measured IC50 of Cn1cc(C2=C(c3nn(CCCN4CCCC4)c4ccccc34)C(=O)NC2=O)c2cc(Cl)ccc21 : 0.175 µM

Measured IC50 of O=C1NC(=O)C(c2nn(CCCN3CCOCC3)c3ccccc23)=C1c1cn(-c2ccc3ccccc3c2)c2ccccc12 : 0.342 µM

Measured IC50 of CN(CCO)CCCn1nc(C2=C(c3cn(-c4cccnc4)c4ccccc34)C(=O)NC2=O)c2ccccc21 : 0.038 µM

Measured IC50 of CN(C)CCCn1nc(C2=C(c3cn(-c4ccc5cc(O)ccc5c4)c4ccccc34)C(=O)NC2=O)c2ccccc21 : 0.215 µM

Measured IC50 of O=C1NC(=O)C(c2nn(CCCO)c3ccccc23)=C1c1cn(-c2ccc3ccccc3c2)c2ccccc12 : 0.206 µM

Measured IC50 of CN(C)CCCn1nc(C2=C(c3cn(-c4cccnc4)c4ccccc34)C(=O)NC2=O)c2ccccc21 : 0.213 µM

Measured IC50 of O=C1NC(=O)C(c2nn(CCCN3CCOCC3)c3ccccc23)=C1c1cn(-c2cnc3ccccc3c2)c2ccccc12 : 0.09 µM

Measured IC50 of CNCCCn1nc(C2=C(c3cn(C)c4ccc(Cl)cc34)C(=O)NC2=O)c2ccccc21 : 0.512 µM

Measured IC50 of CN(C)CCCn1nc(C2=C(c3cn(-c4cncc5ccccc45)c4ccccc34)C(=O)NC2=O)c2ccccc21 : 0.253 µM
